- target-system: recombinant human IL-13 (human, UniProt P35225 35-146, limits assumed)
- Sequence (P35225 35-146 limits assumed): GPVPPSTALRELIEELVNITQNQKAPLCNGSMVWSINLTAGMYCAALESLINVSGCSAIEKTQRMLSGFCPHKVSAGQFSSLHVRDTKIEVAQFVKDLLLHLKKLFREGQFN
- experiment-notes: cell-based or functional assay
test-readout: Activity IC50 (µg/mL), HEK-Blue IL-4/IL-13 cells
I'd appreciate it if you included the unit after the number.

Check out these entries, answers already filled in.
binder	result
MY9466 (VHH) VHH: EVQLLESGGGLVQPGESLRLSCEVSGHTHTNYCMGWFRQAPGKGLEGVAAIDTDGSTTYADSVKGRFTISKDNAKNTLYLQMNSLKPEDTAMYYCMAEDFRDEYAPEPRLSSGGYCSIGYGMDYWGKGTLVTVSS	0.0038 µg/mL
MY9464 (VHH) EVQLLESGGGLVQPGESLRLSCEVSGHTHTNYCMGWFRQAPGKGLEGVAAIDTDGSTTYADSVKGRFTISKDNAKNTLYLQMNSLKPEDTAMYYCMAEDFRDEYAPEPRLSSGGYCSIGYGMDYWGKGTLVTVSSGGGGSGGGGSGGGGSGGGGSEVQLLESGGGLVQPGGSLRLSCAASGFTFSDYTMTWVRQAPGKGLEWVSTVNPDGDSTFYRDSVKGRFTISRDNAKNTLYLQLSSLKTEDTAMYYCTKASLITWPQSPRGQGTLVTVSS	0.0029 µg/mL
MY9431 (VHH) EVQLLESGGGLVQPGGSLRLSCAASGFTFSDYTMTWVRQAPGKGLEWVSTVNPDGDSTFYRDSVKGRFTISRDNAKNTLYLQLSSLKTEDTAMYYCTKASLITWPQSPRGQGTLVTVSSGGGGSGGGGSGGGGSGGGGSEVQLLESGGGLVQPGESLRLSCEVSGHTHTNYCMGWFRQAPGKGLEGVAAIDTDGSTTYADSVKGRFTISKDNAKNTLYLQMNSLKPEDTAMYYCMAEDFRDEYAPEPRLSSGGYCSIGYGMDYWGKGTLVTVSS	0.0014 µg/mL

We now examine a further binder.
Given item MY9470 (VHH) EVQLLESGGGLVQPGESLRLSCEVSGHTHTNYCMGWFRQAPGKGLEGVAAIDTDGSTTYADSVKGRFTISKDNAKNTLYLQMNSLKPEDTAMYYCMAEDFRDEYAPEPRLSSGGYCSIGYGMDYWGKGTLVTVSSGGGGSGGGGSGGGGSGGGGSEVQLLESGGGLVQPGESLRLSCEVSGHTHTNYCMGWFRQAPGKGLEGVAAIDTDGSTTYADSVKGRFTISKDNAKNTLYLQMNSLKPEDTAMYYCMAEDFRDEYAPEPRLSSGGYCSIGYGMDYWGKGTLVTVSS , the value recorded as its Activity IC50 (µg/mL), HEK-Blue IL-4/IL-13 cells is 1.75 µg/mL
